Below, each of the variants is paired with its reported SGCB cell-surface expression functional score (log10) value.
B1: library; numbered along this chain (parent)
chain: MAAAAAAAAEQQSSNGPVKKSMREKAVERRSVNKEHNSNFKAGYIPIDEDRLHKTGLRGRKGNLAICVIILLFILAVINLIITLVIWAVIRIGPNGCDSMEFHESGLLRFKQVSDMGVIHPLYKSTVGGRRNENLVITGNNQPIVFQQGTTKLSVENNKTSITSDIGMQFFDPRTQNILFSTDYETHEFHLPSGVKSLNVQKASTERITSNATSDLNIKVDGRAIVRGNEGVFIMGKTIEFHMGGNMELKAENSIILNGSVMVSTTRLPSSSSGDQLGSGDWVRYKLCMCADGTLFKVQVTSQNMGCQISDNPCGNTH

variants of: B1; test: SGCB cell-surface expression functional score (HA stain, bin4 vs bin1, normalised to synonymous) (log10 ratio); higher = more cell-surface SGCB (functional)
METRIC: SGCB cell-surface expression functional score (log10)

> print(dat)
    mutation.spec  reported.value
 1           L72Y           -0.04
 2          L257I            0.12
 3          N258M            0.62
 4           L75K             0.2
 5          N316C            0.11
 6           G93L           -1.84
 7          D183V           -0.86
 8          N253E            0.76
 9          K152C            0.03
10           N63S           -0.25
11           D48E           -0.17
12          D215I           -0.99
13          D311C             0.1
14          G167M           -1.61
15          E188S           -0.61
16           N39Q            0.07
17          K111T           -0.37
18          N229P            0.68
19            A5I            0.29
20          F110V           -0.47
21          D172H            0.44
22          S114Y           -1.47
23           K54V            0.08
24          T186R            0.06
25          N316Y            0.39
26           H36I            0.09
27          F296Q           -0.65
28          C290S           -0.53
29          E240W           0.422
30          S125D            0.46
31           C97A           -0.14
32           G93Q            -0.8
33          G280S            0.11
34          S105L           -0.66
35           L52C            0.09
36          K111S           -1.07
37          S204P           -0.83
38          E185D            0.34
39           N37V           -0.13
40          M235N            1.02
41           I66Y            0.29
42           I45Q           -0.67
43          Q303R           -0.45
44           E49A            0.29
45           L84A               0
46          L257N           -0.61
47           G93P           -1.64
48           T83V           -0.11
49          L277W            0.44
50          S273H           -0.82
51          V232T               0
52          N246V            0.39
53          Y285Q           -0.54
54           G62T           -0.09
55          E188K           -0.62
56          D311P           -0.48
57          I239H           -0.15
58          K124P            0.61
59            M1K            0.14
60           I74Y           -0.07
61          N304I           -0.42
62          R131V            0.31
63          N304F           -0.09
64          R223K            0.86
65          T151K            -0.7
66          I309T            0.29
67          H120K           -0.13
68          I234N           -1.67
69          S302C           -0.53
70           Q11P            0.41
71          F110E           -1.42

Recorded values, source the supplement of paper PMC10266784.
